Recorded measurements of log10 of Kd, one per entry
- Assay target: T1, recombinant human Tau monomer, 2N4R isoform (amino acids 2-441) (human, UniProt P10636-8 2-441)
- T1 construct: range 2-441; N-terminal His-tag removed with TEV protease; also called monomeric Tau
- T1 sequence (P10636 other isoform, or with tags, fused parts or gaps limits assumed): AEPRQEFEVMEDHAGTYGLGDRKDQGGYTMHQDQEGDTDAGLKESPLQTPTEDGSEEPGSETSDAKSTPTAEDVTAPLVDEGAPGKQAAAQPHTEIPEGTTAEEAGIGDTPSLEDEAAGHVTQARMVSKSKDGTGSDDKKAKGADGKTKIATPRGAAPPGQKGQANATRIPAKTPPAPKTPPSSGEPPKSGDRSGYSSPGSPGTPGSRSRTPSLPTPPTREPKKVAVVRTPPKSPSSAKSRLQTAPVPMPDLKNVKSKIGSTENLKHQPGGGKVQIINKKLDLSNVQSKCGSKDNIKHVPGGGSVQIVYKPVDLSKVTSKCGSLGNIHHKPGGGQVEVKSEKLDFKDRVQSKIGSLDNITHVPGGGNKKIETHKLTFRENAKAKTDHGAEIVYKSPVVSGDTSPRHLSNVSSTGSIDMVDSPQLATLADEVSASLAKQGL
- Method summary: SPR, captured IgG, Tau monomer analyte, 1:1 model; fit-quality column: Yes
Measured attribute: log10 of Kd (log10 of the value in nM)

{"columns": ["Binder", "Measured attribute", "Result"],
 "data": [
  ["hu37D3.v28.B2 (antibody, V domains shown) VH: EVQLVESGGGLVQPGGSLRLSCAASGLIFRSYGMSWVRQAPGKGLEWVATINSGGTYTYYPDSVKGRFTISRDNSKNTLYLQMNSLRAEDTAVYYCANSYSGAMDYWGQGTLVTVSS VL: DDVLTQTPLSLPVTPGQPASISCRSSQSIVHSMGNTFFEWYLQKPGQSPQLLIYKVSNRFSGVPDRFSGSGSGTDFTLKISRVEAEDVGVYYCFQGSLVPWTFGQGTKVEIK", "log10 of Kd", 1.50],
  ["hu37D3-H9.v31.7 (antibody, V domains shown) VH: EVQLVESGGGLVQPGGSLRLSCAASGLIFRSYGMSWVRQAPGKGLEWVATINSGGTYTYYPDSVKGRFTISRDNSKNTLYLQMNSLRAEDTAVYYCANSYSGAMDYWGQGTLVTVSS VL: DDVLTQTPLSLPVTPGQPASISCRSSQSIVHSNARTYFEWYLQKPGQSPQLLIYKVSNRFSGVPDRFSGSGSGTDFTLKISRVEAEDVGVYYCFQGSLVPWTFGQGTKVEIK", "log10 of Kd", 0.84],
  ["hu37D3-H9.v5 N28D hIgG1 (antibody, name in Kabat numbering, V domains shown, human IgG1, kappa; also called hu37D3-H9.v5.3) VH: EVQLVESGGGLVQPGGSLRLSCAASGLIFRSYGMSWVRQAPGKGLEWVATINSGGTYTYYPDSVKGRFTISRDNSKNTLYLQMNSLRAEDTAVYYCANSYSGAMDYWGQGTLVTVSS VL: EDVLTQTPLSLPVTPGQPASISCRSSQSIVHSDGNTYFEWYLQKPGQSPQLLIYKVSNRFSGVPDRFSGSGSGTDFTLKISRVEAEDVGVYYCFQGSLVPWTFGQGTKVEIK", "log10 of Kd", 1.86],
  ["hu37D3-H9.v5.1 (antibody, V domains shown) VH: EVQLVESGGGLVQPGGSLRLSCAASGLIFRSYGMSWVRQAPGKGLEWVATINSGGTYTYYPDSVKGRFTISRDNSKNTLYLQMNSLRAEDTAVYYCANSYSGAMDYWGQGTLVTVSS VL: EDVLTQTPLSLPVTPGQPASISCRSSQSIVHSNANTYFEWYLQKPGQSPQLLIYKVSNRFSGVPDRFSGSGSGTDFTLKISRVEAEDVGVYYCFQGSLVPWTFGQGTKVEIK", "log10 of Kd", 0.60],
  ["hu37D3.v28.A24 (antibody, V domains shown) VH: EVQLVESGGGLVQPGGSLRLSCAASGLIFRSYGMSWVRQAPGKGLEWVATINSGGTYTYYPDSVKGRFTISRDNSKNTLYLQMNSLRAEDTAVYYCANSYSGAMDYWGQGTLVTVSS VL: DVVMTQTPLSLPVTPGQPASISCRSSQSIVHSNGNTYFEWYLQKPGQSPQLLIYKVSNRFSGVPDRFSGSGSGTDFTLKISRVEAEDVGVYYCFQGSLVPWTFGQGTKVEIK", "log10 of Kd", 0.67],
  ["hu37D3.v29.6 (antibody, V domains shown) VH: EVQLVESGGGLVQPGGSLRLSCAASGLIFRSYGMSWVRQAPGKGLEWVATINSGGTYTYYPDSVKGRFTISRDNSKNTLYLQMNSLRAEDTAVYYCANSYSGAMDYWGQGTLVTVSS VL: EDVLTQTPLSLPVTPGQPASISCRSSQSIVHSNGKTYFEWYLQKPGQSPQLLIYKVSNRFSGVPDRFSGSGSGTDFTLKISRVEAEDVGVYYCFQGSLVPWTFGQGTKVEIK", "log10 of Kd", 0.15],
  ["hu37D3-H9.v5.8 (antibody, V domains shown) VH: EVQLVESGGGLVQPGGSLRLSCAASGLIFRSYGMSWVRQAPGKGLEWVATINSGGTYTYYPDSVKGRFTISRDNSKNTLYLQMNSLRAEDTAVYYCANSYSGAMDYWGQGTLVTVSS VL: EDVLTQTPLSLPVTPGQPASISCRSSQSIVHSNGQTYFEWYLQKPGQSPQLLIYKVSNRFSGVPDRFSGSGSGTDFTLKISRVEAEDVGVYYCFQGSLVPWTFGQGTKVEIK", "log10 of Kd", 0.34],
  ["hu37D3.v29.1 (antibody, V domains shown) VH: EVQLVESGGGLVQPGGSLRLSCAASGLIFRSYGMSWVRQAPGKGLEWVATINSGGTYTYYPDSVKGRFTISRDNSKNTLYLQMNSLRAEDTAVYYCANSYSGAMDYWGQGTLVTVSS VL: EDVLTQTPLSLPVTPGQPASISCRSSQSIVHSNGDTYFEWYLQKPGQSPQLLIYKVSNRFSGVPDRFSGSGSGTDFTLKISRVEAEDVGVYYCFQGSLVPWTFGQGTKVEIK", "log10 of Kd", 1.13],
  ["hu37D3.v28.53 (antibody, V domains shown) VH: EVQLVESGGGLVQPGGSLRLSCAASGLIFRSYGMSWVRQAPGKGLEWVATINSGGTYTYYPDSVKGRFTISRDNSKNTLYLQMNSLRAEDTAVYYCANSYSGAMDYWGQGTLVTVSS VL: EDVLTQTPLSLPVTPGQPASISCRSSQSIVHSRGNTYFEWYLQKPGQSPQLLIYKVSNRFSGVPDRFSGSGSGTDFTLKISRVEAEDVGVYYCFQGSLVPWTFGQGTKVEIK", "log10 of Kd", 1.36],
  ["hu37D3.v28.56 (antibody, V domains shown) VH: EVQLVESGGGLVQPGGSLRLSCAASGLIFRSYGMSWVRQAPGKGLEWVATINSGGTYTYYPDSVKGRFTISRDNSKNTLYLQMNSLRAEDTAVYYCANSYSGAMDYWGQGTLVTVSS VL: DDVLTQTPLSLPVTPGQPASISCRSSQSIVHSNYNTYFEWYLQKPGQSPQLLIYKVSNRFSGVPDRFSGSGSGTDFTLKISRVEAEDVGVYYCFQGSLVPWTFGQGTKVEIK", "log10 of Kd", 0.73]
]}
